- system: UniProt P19971
- Sequence (P19971 whole entry): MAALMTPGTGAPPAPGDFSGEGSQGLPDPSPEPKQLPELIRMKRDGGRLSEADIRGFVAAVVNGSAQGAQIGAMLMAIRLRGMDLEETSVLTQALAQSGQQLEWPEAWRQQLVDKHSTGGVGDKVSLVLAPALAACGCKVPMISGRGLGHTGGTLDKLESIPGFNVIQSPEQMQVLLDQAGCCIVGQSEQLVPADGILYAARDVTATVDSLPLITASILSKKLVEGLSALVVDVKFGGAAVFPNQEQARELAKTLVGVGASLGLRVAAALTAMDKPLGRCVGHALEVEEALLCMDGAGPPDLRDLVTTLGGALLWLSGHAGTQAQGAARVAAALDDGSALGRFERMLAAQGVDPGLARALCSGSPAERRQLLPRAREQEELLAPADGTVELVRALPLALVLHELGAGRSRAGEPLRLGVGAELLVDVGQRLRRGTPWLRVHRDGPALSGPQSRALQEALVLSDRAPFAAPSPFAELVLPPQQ
- assayNotes: Susceptibility to thymidine phosphorylase (ThdPase) at a substrate concentration of 1.0 mM
Form field: Relative susceptibility (one value per entry).

| molecule | system | Relative susceptibility |
| --- | --- | --- |
| C[C@H]1O[C@@H](n2cc(C#N)c(=O)[nH]c2=O)[C@H](O)C1O (single isomer, unassigned) | UniProt P19971 | < 0.01 |
| C[C@H]1O[C@@H](n2cc(Cc3cccc(OCc4ccccc4)c3)c(=O)[nH]c2=O)[C@H](O)C1O (single isomer, unassigned) | UniProt P19971 | < 0.01 |

For the next question, use this molecule.
GET /values?item= C[C@H]1O[C@@H](n2cc(/C=C/c3ccccc3)c(=O)[nH]c2=O)[C@H](O)C1O (single isomer, unassigned) &system= UniProt P19971 returns Relative susceptibility: < 0.01
